- assay-overview: Cytotoxicity against human P4R5 MAGI cells
- Assay type: cell-based
assay-metric: CC50

>>> recorded_result("COc1ccc(-c2ccc(Sc3cc(=O)n(O)c(=O)[nH]3)cc2)cc1F")
"> 100 µM"
>>> recorded_result("COc1cccc(-c2ccc(Nc3cc(=O)n(O)c(=O)[nH]3)cc2)c1")
"> 25 µM"
>>> recorded_result("O=c1cc(Sc2cccc(-c3cccc(C(F)(F)F)c3)c2)[nH]c(=O)n1O")
"> 100 µM"
>>> recorded_result("O=c1cc(Sc2cccc(-c3ccc(C(F)(F)F)cc3)c2)[nH]c(=O)n1O")
"> 100 µM"

Could you now look at the following compound, please?
Prompt: Please look up its CC50: `Cc1ccc(-c2ccc(Sc3cc(=O)n(O)c(=O)[nH]3)cc2)cc1`
Response: > 100 µM

* * *

- target-of-assay: Human immunodeficiency virus type 1 reverse transcriptase (Human immunodeficiency virus 1, UniProt Q72547)
IC50 under 8 nM gets rule met, anything at or over 8 nM gets rule not met.

Before answering, review these 3 worked examples.
>>> assigned_class("O=c1cc(Sc2cccc(F)c2)[nH]c(=O)n1O")
"rule not met"
>>> assigned_class("COc1ccccc1Sc1cc(=O)n(O)c(=O)[nH]1")
"rule not met"
>>> assigned_class("O=c1cc(Sc2ccc(Br)cc2)[nH]c(=O)n1O")
"rule not met"

Prompt: Item `O=c1cc(Sc2ccccc2)[nH]c(=O)n1O` : IC50 beneath 8 nM, strictly?
Response: rule not met

Prompt: Item `COc1ccc(-c2ccc(Sc3cc(=O)n(O)c(=O)[nH]3)cc2)cc1` : IC50 beneath 8 nM, strictly?
Response: rule met

Prompt: Item `COc1cccc(-c2ccc(Sc3cc(=O)n(O)c(=O)[nH]3)cc2)c1` : IC50 beneath 8 nM, strictly?
Response: rule met

* * *

- target-of-assay: Human immunodeficiency virus type 1 integrase (Human immunodeficiency virus 1)
- Sequence (Q7ZJM1 whole entry): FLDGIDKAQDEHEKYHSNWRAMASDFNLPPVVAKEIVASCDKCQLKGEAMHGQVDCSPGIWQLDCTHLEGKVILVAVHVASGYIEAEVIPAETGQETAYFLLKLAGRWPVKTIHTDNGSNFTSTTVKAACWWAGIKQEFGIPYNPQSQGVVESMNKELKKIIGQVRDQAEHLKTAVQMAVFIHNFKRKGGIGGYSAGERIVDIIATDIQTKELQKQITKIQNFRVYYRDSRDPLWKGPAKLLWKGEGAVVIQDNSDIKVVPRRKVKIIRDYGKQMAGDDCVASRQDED
pIC50: −log10 of the molar value.
If the reported pIC50 equals or exceeds 6, assign true. If not, assign false.

Before answering, review these 2 worked examples.
>>> assigned_class("O=c1cc(Sc2ccc(-c3ccc(C(F)(F)F)cc3)cc2)[nH]c(=O)n1O")
"false"
>>> assigned_class("O=c1cc(Sc2ccc(F)cc2)[nH]c(=O)n1O")
"false"

Then there is this compound:
Prompt: Is it the case that `Cc1cc(-c2ccc(Sc3cc(=O)n(O)c(=O)[nH]3)cc2)ccc1F` has pIC50 reaching or exceeding 6?
Response: false

* * *

As an illustration, consider measured IC50 for molecules on Human immunodeficiency virus type 1 integrase (Human immunodeficiency virus 1).

>>> recorded_result("O=c1cc(Sc2ccc(-c3ccc(F)cc3)cc2)[nH]c(=O)n1O")
"> 1000 nM"
>>> recorded_result("O=c1cc(Sc2ccc(-c3ccc(Cl)cc3)cc2)[nH]c(=O)n1O")
"> 1000 nM"
>>> recorded_result("O=c1cc(Sc2cccc(-c3cccc(C(F)(F)F)c3)c2)[nH]c(=O)n1O")
"> 1000 nM"
>>> recorded_result("COc1ccc(-c2ccc(Sc3cc(=O)n(O)c(=O)[nH]3)cc2)cc1F")
"> 140 nM"

Prompt: Provide the documented IC50 with Human immunodeficiency virus type 1 integrase (Human immunodeficiency virus 1) as the system for `O=c1cc(Sc2ccccc2-c2ccc(F)cc2)[nH]c(=O)n1O`
Response: > 100000 nM

Prompt: Provide the documented IC50 with Human immunodeficiency virus type 1 integrase (Human immunodeficiency virus 1) as the system for `O=c1cc(Sc2ccc(-c3cccc(C(F)(F)F)c3)cc2)[nH]c(=O)n1O`
Response: > 100000 nM

These entries and their values trace back to ChEMBL document CHEMBL4270570.
